pIC50 listing for selected compounds.
- SYSTEM_TESTED: human A2b adenosine receptor (Homo sapiens (Human), UniProt P29275)
- Sequence (P29275 whole entry): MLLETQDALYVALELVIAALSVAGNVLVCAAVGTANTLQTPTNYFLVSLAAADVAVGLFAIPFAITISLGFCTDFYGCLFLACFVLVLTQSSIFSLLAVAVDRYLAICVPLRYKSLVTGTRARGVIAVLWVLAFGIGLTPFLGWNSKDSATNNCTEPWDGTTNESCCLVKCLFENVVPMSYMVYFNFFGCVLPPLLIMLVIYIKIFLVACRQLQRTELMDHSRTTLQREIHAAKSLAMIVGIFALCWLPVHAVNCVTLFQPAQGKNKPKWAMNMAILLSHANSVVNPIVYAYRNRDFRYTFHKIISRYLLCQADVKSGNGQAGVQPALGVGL
- ASSAY: A2B antagonism in cAMP cell-based assay (LANCE cAMP, HEK293 cells, 600 nM adenosine)
- EXPERIMENTAL_SETUP: values marked *: cAMP cell-based assay
Just the number, please; pIC50 means minus log10 of the concentration in mol/L.

> print(dat)
                                   compound  metric  assay.value
1  COc1cccc2c1nc(N)n1nc([C@@H]3CCCN(c4cnn(C(C)C)c4)C3)nc21 [Example 5]   pIC50         7.40
2  COc1ccc2c(c1)nc(N)n1nc([C@@H]3C[C@H](C)CN(c4cnn(C(C)(C)CO)c4)C3)nc21 (single isomer, unassigned) [Example 222A]   pIC50         6.09
3  COc1cccc2c1nc(N)n1nc(C3CCC(C)N(c4cnn(C5CC5)c4)C3)nc21 (single isomer, unassigned) [Example 141D]   pIC50         5.78
4  COc1cccc2c1nc(N)n1nc(C3CCC(C)N(c4cnn(CC(C)(C)O)c4)C3)nc21 (single isomer, unassigned) [Example 143B]   pIC50         6.22

Req: Report pIC50 for COc1cccc2c1nc(N)n1nc(C3CCC(C)N(c4cnn(CC5(O)CCC5)c4)C3)nc21 (single isomer, unassigned) [Example 144D] please.
Resp: 8.40

Req: Okay, and Cn1cc(N2CCC[C@@H](c3nc4c5cccc(OC(F)F)c5nc(N)n4n3)C2)cn1 [Example 126] ?
Resp: 5.60

Req: Okay, and COc1cccc2c1nc(N)n1nc([C@@H]3CCCN(c4ccn(C(C)C)c(=O)c4)C3)nc21 [Example 89] ?
Resp: 6.20

Req: Okay, and COc1cccc2c1nc(N)n1nc([C@@H]3CCN(c4cnn(C5CC5)c4)C3)nc21 [Example 161] ?
Resp: 6.64

Req: Okay, and CCn1ccc(N2CCC[C@@H](c3nc4c5cccc(OC)c5nc(N)n4n3)C2)cc1=O [Example 91] ?
Resp: 6.11

Req: Okay, and COc1cccc2c1nc(N)n1nc([C@H]3C[C@@H](F)CN(c4cnn(C5CC5)c4)C3)nc21 [Example 148A] ?
Resp: 6.63

Req: Okay, and COc1cccc2c1nc(N)n1nc([C@@H]3CCCN(c4csc(C5CC5)n4)C3)nc21 [Example 85] ?
Resp: 6.50

Req: Okay, and COc1cccc2c1nc(N)n1nc([C@@H]3CCCN(c4ccc(=O)n(CC(F)(F)F)c4C)C3)nc21 [Example 94] ?
Resp: 6.68

Req: Okay, and CCn1ncc(N2CCC[C@@H](c3nc4c5cccc(OC)c5nc(N)n4n3)C2)c1C [Example 15] ?
Resp: 6.83

Req: Okay, and CC[C@@H]1CC[C@@H](c2nc3c4ccc(OC)cc4nc(N)n3n2)CN1c1cnn(C(C)(C)CO)c1 [Example 215B] ?
Resp: 8.20

Req: Okay, and COc1cccc2c1nc(N)n1nc([C@@H]3CCCN(c4cnn([C@@H]5CCC[C@H](O)[C@@]5(C)O)c4)C3)nc21 [Example 27] ?
Resp: 7.39

Req: Okay, and COc1cccc2c1nc(N)n1nc([C@@H]3CCCN(c4nnc(C)o4)C3)nc21 [Example 82] ?
Resp: 6.26

Req: Okay, and COc1ccc2c(c1)nc(N)n1nc([C@@H]3CCCN(c4cnn([C@@H](C)[C@@H](C)O)c4)C3)nc21 [Example 221A] ?
Resp: 7.21

Req: Okay, and CC[C@@H]1CC[C@@H](c2nc3c4cccc(OC)c4nc(N)n3n2)CN1c1cnn(CC(C)(C)O)c1 [Example 216A] ?
Resp: 6.19

* * *

- SYSTEM_TESTED: human A2a adenosine receptor (Homo sapiens (Human))
- ASSAY: A2a receptor affinity radioligand binding assay ([3H] SCH58261, membranes from HEK293 or CHO cells)
- EXPERIMENTAL_SETUP: unstarred values: radioligand binding
METRIC: pIC50
Just the number, please; pIC50 means minus log10 of the concentration in mol/L.

> print(dat)
                                   compound  metric  assay.value
1  COc1cccc2c1nc(N)n1nc([C@@H]3CCCN(c4cnn(C)c4C(F)(F)F)C3)nc21   pIC50         9.00
2  COc1ccc2c(c1)nc(N)n1nc([C@@H]3CCCN(c4cnn([C@@H](C)C(C)(C)O)c4)C3)nc21 [Example 185B]   pIC50         9.00
3  COc1cccc2c1nc(N)n1nc([C@H]3C[C@@H](F)CN(c4cnn(C5CC5)c4)C3)nc21 [Example 148A]   pIC50         9.00
4  COc1cccc2c1nc(N)n1nc(C3CCC[C@@](O)(c4cnn(C)c4)C3)nc21 (mixture of isomers) [Example 134B]   pIC50         9.00

For the next question, use this compound.
Req: Report pIC50 for "COc1cccc2c1nc(N)n1nc([C@@H]3CCCN(c4cc(C)n(C)n4)C3)nc21" please.
Resp: 9.00

* * *

pIC50 listing for selected compounds.
- SYSTEM_TESTED: human A2b adenosine receptor (Homo sapiens (Human), UniProt P29275)
- ASSAY: A2b radioligand filtration binding assay (tritiated proprietary A2b antagonist, HEK293 membranes)
- EXPERIMENTAL_SETUP: unstarred values: radioligand binding
Just the number, please; pIC50 means minus log10 of the concentration in mol/L.

> print(dat)
                                   compound  metric  assay.value
1  COc1cccc2c1nc(N)n1nc([C@@H]3CCCN(c4cnc(C)cn4)C3)nc21   pIC50         6.61
2  COc1cccc2c1nc(N)n1nc([C@@H]3CCC[C@H](c4cnn(C)c4)C3)nc21 [Example 136D]   pIC50         5.70
3  COc1cccc2c1nc(N)n1nc([C@H]3CCO[C@H](c4cnn(C)c4)C3)nc21 [Example 139C]   pIC50         5.74
4  COc1ccc2c(c1)nc(N)n1nc([C@@H]3CCCN(c4cnn([C@@H](C)C(C)(C)O)c4C)C3)nc21 [Example 189B]   pIC50         6.54

For the next question, use this compound.
Req: Report pIC50 for CCn1cc(N2C[C@H](c3nc4c5cccc(OC)c5nc(N)n4n3)CC[C@H]2C)cn1 [Example 140B] please.
Resp: 6.12

* * *

pIC50 listing for selected molecules.
- SYSTEM_TESTED: human A2a adenosine receptor (Homo sapiens (Human), UniProt P29274)
- Sequence (P29274 whole entry): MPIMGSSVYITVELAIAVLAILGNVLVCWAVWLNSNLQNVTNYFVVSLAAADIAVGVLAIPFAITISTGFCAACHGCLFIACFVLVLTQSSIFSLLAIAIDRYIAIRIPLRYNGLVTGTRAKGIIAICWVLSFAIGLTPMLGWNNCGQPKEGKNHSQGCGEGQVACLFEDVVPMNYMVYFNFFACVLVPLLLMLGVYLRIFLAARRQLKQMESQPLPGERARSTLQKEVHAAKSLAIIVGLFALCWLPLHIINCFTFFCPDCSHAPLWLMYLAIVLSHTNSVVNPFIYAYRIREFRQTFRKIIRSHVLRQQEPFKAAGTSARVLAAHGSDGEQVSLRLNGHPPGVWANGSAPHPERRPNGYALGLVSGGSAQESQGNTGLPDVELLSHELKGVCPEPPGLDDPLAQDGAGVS
- ASSAY: A2a receptor affinity radioligand binding assay ([3H] SCH58261, membranes from HEK293 or CHO cells)
- EXPERIMENTAL_SETUP: unstarred values: radioligand binding
Just the number, please; pIC50 means minus log10 of the concentration in mol/L.

> print(dat)
                                   molecule  assay.value
1  COc1ccc2c(c1)nc(N)n1nc([C@@H]3CCCN(c4cnn(C(C)(C)CO)c4)C3)nc21         9.15
2  COc1cccc2c1nc(N)n1nc([C@@H]3CCCN(c4cnn(C5CCS(=O)(=O)CC5)c4)C3)nc21        10.00
3  COc1cccc2c1nc(N)n1nc([C@@H]3CCCN(c4cn(CC(C)(C)O)nc4C(F)F)C3)nc21         9.15
4  COc1cccc2c1nc(N)n1nc([C@@H]3CCCN(c4ccc(=O)n(C(C)C)c4)C3)nc21         9.22

Req: Report pIC50 for "COc1cccc2c1nc(N)n1nc([C@@H]3CCCN(c4cnn(C(C)(C)C(=O)O)c4)C3)nc21" please.
Resp: 8.20

Req: Okay, and COc1cccc2c1nc(N)n1nc(C3CN(c4cnn(C5CC5)c4)CC(F)(F)C3)nc21 (single isomer, unassigned) [Example 154A] ?
Resp: 9.10

* * *

IC50 listing for selected compounds.
- SYSTEM_TESTED: human A2b adenosine receptor (Homo sapiens (Human), UniProt P29275)
- ASSAY: A2b radioligand filtration binding assay (tritiated proprietary A2b antagonist, HEK293 membranes)
- EXPERIMENTAL_SETUP: unstarred values: radioligand binding
Unit nM implied. Number only.

> print(dat)
                                   compound  assay.value
1  COc1cccc2c1nc(N)n1nc([C@H]3CCC[C@@H](c4cnn(C)c4)C3)nc21 (single isomer, unassigned) [Example 136C]          157

Req: Report IC50 for "COc1cccc2c1nc(N)n1nc([C@@H]3CCCN(c4cn(C)nc4C(F)(F)F)C3)nc21" please.
Resp: 85.9

Req: Okay, and COc1ccc2c(c1)nc(N)n1nc([C@@H]3CCCN(c4cnn([C@@H](C)C(C)(C)O)c4)C3)nc21 [Example 185B] ?
Resp: 116
